Test system: NCI-H23 lung
Test: NCI tumour cell line growth inhibition, 48 h
Assign TGI to each entry below.

> print(dat)
                               compound  property.name  experimental.result
1                        NCCCNCCCCN1CC1            TGI              > 28 µM
2       C=C(C)CNC(=S)N(N)c1ccc2ccccc2c1            TGI             > 100 µM
3  Cn1c(O)c(C=Nc2ccccc2Cl)c(=O)n(C)c1=O            TGI             > 100 µM

For every listed record, write down its TGI.
1. O=[N+]([O-])C(Cl)=C/C(=C(\Cl)SCc1ccccc1)[N+](=O)[O-]
2. COC(=O)C(C)NC(=O)c1ccccc1I(OS(=O)(=O)C(F)(F)F)c1ccccc1 (stereo not drawn)

Ans:
["69.6 µM", "> 53.3 µM"]

Here are 5 compounds. What values of TGI were reported for them?
1. Cc1c(Cl)cccc1NC(=O)c1sc2nc3c(cc2c1N)CCCCC3
2. CCOC(=O)/C=C(\C(=O)OCC)n1ccc(=O)[nH]c1=O
3. Fc1cc(-c2cc(-c3ccc4c(c3)OCO4)n[nH]2)c(Cl)cc1Cl
4. O=C1C(Cl)=C(Nc2cccc(O)c2)C(=O)N1Cc1ccc(Cl)cc1Cl
5. Cc1ccc(Sc2cc3c(oc2=O)-c2ccccc2OC3O)cc1 (stereo not drawn)

Ans:
["> 50 µM", "32.4 µM", "7.73 µM", "17.8 µM", "55.3 µM"]

###

Test system: NCI-H23 lung
Assay: NCI tumour cell line growth inhibition, 48 h
Please go through the items and note down their TGI.

> print(dat)
                                  structure  property.name  experimental.result
1  c1ccc(CN2CCN3CCN(CC2)CCN(Cc2ccccc2)CC3)cc1            TGI              21.8 µM

Field: TGI. Fill in for each record below.
1. Cc1cc(Nc2cc(N)ncn2)c(=O)n2c1C(=O)NC21CCCCC1
2. C[C@@H](Nc1nc(Nc2ccc(F)c(Cl)c2)nc2ccccc12)C1CC1
3. CNCCN=c1ccc2c3c1c(O)c1c(O)ccc(=O)c1c3[nH]n2CCNCCO
4. CN(C)C(=O)Oc1c(-c2ccccc2)c(=O)n2c3ccccc3n3c(=O)n(C)c(=O)c1c23

Ans:
> 100 µM
9.34 µM
2.75 µM
> 100 µM

###

Test system: UACC-62 melanoma
Assay: NCI tumour cell line growth inhibition, 48 h; in the data active = GI50 below about 0.43 µM; inactive = the rest
Bench note: report the call from active, inactive

> print(dat)
                                  structure    assayed.target  class.label
1  Cc1c(Cl)cccc1NC(=O)c1sc2nc3c(cc2c1N)CCCCC3  UACC-62 melanoma       active
2  CC1=NN(c2nc(N)nc(/C=C\c3ccc([N+](=O)[O-])s3)n2)C(C)(C)C1  UACC-62 melanoma     inactive
3  C=C1C(=O)O[C@H]2[C@H]1CC/C(COC(=O)NCc1ccc(Cn3c(=O)sn(-c4ccccc4)c3=O)cc1)=C\CC[C@@]1(C)O[C@@H]21  UACC-62 melanoma     inactive
4                  CC(=O)c1cc(O)c2ccccc2c1O  UACC-62 melanoma     inactive
5  O=c1oc2c(C(F)(F)F)cccc2cc1-c1csc(Nc2ccc(OCCF)cc2)n1  UACC-62 melanoma       active

Q: Status in this test for CC1(C)C(=O)/C(=C\c2cccnc2)C[C@]2(C)[C@H]3CC[C@@H]4[C@@H](C(=O)/C=C/c5ccncc5)CC[C@@]4(C)[C@]3(C)CC[C@@H]12 ?
Ans: inactive
